- experimental.details: Milk pharmacokinetics (secretion into milk) of danofloxacin after i.m. administration to lactating sheep fed control or flaxseed-enriched diets
- Type: in vivo
- condition.details: female, Assaf, sheep, milk, im, 1.25 mg/kg; 1.25 mg/kg i.m.; flaxseed 10% diet; mean ± SD, n = 6
metric.name: MRT (h)
// return numeric value only (unit: h, not printed)

What value of MRT has been reported for the following molecule? CN1C[C@@H]2C[C@H]1CN2c1cc2c(cc1F)c(=O)c(C(=O)O)cn2C1CC1
5.25

---

- experimental.details: Milk pharmacokinetics (secretion into milk) of danofloxacin after i.m. administration to lactating sheep fed control or flaxseed-enriched diets
- Assay type: in vivo
- condition.details: female, Assaf, sheep, milk, im, 1.25 mg/kg; 1.25 mg/kg i.m.; flaxseed 15% diet; mean ± SD, n = 6
metric.name: Tmax (h)
Number in h, nothing else.

Entry CN1C[C@@H]2C[C@H]1CN2c1cc2c(cc1F)c(=O)c(C(=O)O)cn2C1CC1 [danofloxacin] : reported Tmax = ?
2.66

---

- experimental.details: Milk pharmacokinetics (secretion into milk) of danofloxacin after i.m. administration to lactating sheep fed control or flaxseed-enriched diets
- Assay type: in vivo
- condition.details: female, Assaf, sheep, milk, im, 1.25 mg/kg; 1.25 mg/kg i.m.; control diet; mean ± SD, n = 6
metric.name: AUC(0-inf)
Respond with a number, then the unit of measure.

Name the reported AUC(0-inf) value associated with the molecule CN1C[C@@H]2C[C@H]1CN2c1cc2c(cc1F)c(=O)c(C(=O)O)cn2C1CC1
19400 ng·h/mL

---

- experimental.details: Milk pharmacokinetics (secretion into milk) of danofloxacin after i.m. administration to lactating sheep fed control or flaxseed-enriched diets
- Type: in vivo
- condition.details: female, Assaf, sheep, milk, im, 1.25 mg/kg; 1.25 mg/kg i.m.; flaxseed 10% diet; mean ± SD, n = 6
metric.name: AUC(0-inf) (ng·h/mL)
Number in ng·h/mL, nothing else.

Given CN1C[C@@H]2C[C@H]1CN2c1cc2c(cc1F)c(=O)c(C(=O)O)cn2C1CC1 [danofloxacin] , state its recorded AUC(0-inf).
14900

---

- experimental.details: Milk pharmacokinetics (secretion into milk) of danofloxacin after i.m. administration to lactating sheep fed control or flaxseed-enriched diets
- Assay type: in vivo
- condition.details: female, Assaf, sheep, milk, im, 1.25 mg/kg, milk; 1.25 mg/kg i.m.; flaxseed 15% diet; mean ± SD, n = 6; read-out: AUC 0–24
metric.name: AUC(0-t)
Returns: string containing the numeric result and its unit.

Request the reported AUC(0-t) associated with CN1C[C@@H]2C[C@H]1CN2c1cc2c(cc1F)c(=O)c(C(=O)O)cn2C1CC1
13400 ng·h/mL

---

- experimental.details: Milk pharmacokinetics (secretion into milk) of danofloxacin after i.m. administration to lactating sheep fed control or flaxseed-enriched diets
- Type: in vivo
- condition.details: female, Assaf, sheep, milk, im, 1.25 mg/kg, milk; 1.25 mg/kg i.m.; flaxseed 10% diet; mean ± SD, n = 6; read-out: AUC 0–24
metric.name: AUC(0-t) (ng·h/mL)
Report the value in ng·h/mL with no unit label.

Would you mind telling me what AUC(0-t) value was observed for CN1C[C@@H]2C[C@H]1CN2c1cc2c(cc1F)c(=O)c(C(=O)O)cn2C1CC1 [danofloxacin] ?
14600

---

- experimental.details: Plasma pharmacokinetics of danofloxacin after i.m. administration to lactating sheep fed control or flaxseed-enriched diets
- Assay type: in vivo
- condition.details: female, Assaf, im, 1.25 mg/kg, 1.25 mg/kg i.m., flaxseed 15% diet, mean ± SD, n = 6
metric.name: Tmax
Write the numeric value and append its unit.

Name the reported Tmax value associated with the molecule CN1C[C@@H]2C[C@H]1CN2c1cc2c(cc1F)c(=O)c(C(=O)O)cn2C1CC1
1.16 h

---

- experimental.details: Plasma pharmacokinetics of danofloxacin after i.m. administration to lactating sheep fed control or flaxseed-enriched diets
- Format: in vivo
- condition.details: female, Assaf, im, 1.25 mg/kg, 1.25 mg/kg i.m., control diet, mean ± SD, n = 6
metric.name: Cmax (ng/mL)
The response must be a number in ng/mL with no trailing unit.

Item under review: CN1C[C@@H]2C[C@H]1CN2c1cc2c(cc1F)c(=O)c(C(=O)O)cn2C1CC1 . Reported Cmax?
310

---

- experimental.details: Milk pharmacokinetics (secretion into milk) of danofloxacin after i.m. administration to lactating sheep fed control or flaxseed-enriched diets
- Type: in vivo
- condition.details: female, Assaf, sheep, milk and plasma, intramuscular, 1.25 mg/kg, 1.25 mg/kg i.m.; flaxseed 15% diet; mean ± SD, n = 6; read-out: AUC 0–24 milk/plasma
metric.name: Kp
Keep the answer to the number alone.

Item under review: CN1C[C@@H]2C[C@H]1CN2c1cc2c(cc1F)c(=O)c(C(=O)O)cn2C1CC1 . Reported Kp?
7.57

---

- experimental.details: Plasma pharmacokinetics of danofloxacin after i.m. administration to lactating sheep fed control or flaxseed-enriched diets
- Type: in vivo
- condition.details: female, Assaf, im, 1.25 mg/kg, 1.25 mg/kg i.m., flaxseed 10% diet, mean ± SD, n = 6, read-out: AUC 0–24
metric.name: AUC(0-t) (ng·h/mL)
Give a bare numeral; the unit ng·h/mL is implied.

Report AUC(0-t) for CN1C[C@@H]2C[C@H]1CN2c1cc2c(cc1F)c(=O)c(C(=O)O)cn2C1CC1 [danofloxacin] please.
1920

---

- experimental.details: Milk pharmacokinetics (secretion into milk) of danofloxacin after i.m. administration to lactating sheep fed control or flaxseed-enriched diets
- Assay type: in vivo
- condition.details: female, Assaf, sheep, milk and plasma, intramuscular, 1.25 mg/kg, 1.25 mg/kg i.m.; control diet; mean ± SD, n = 6; read-out: AUC 0–24 milk/plasma
metric.name: Kp
Number, no unit, nothing else.

I'd like to know its Kp. The compound in question is CN1C[C@@H]2C[C@H]1CN2c1cc2c(cc1F)c(=O)c(C(=O)O)cn2C1CC1 [danofloxacin]
11

---

- experimental.details: Plasma pharmacokinetics of danofloxacin after i.m. administration to lactating sheep fed control or flaxseed-enriched diets
- Assay type: in vivo
- condition.details: female, Assaf, im, 1.25 mg/kg, 1.25 mg/kg i.m., flaxseed 10% diet, mean ± SD, n = 6
metric.name: Tmax (h)
Please give a number only; it is taken to be in h.

What value of measured Tmax is listed for CN1C[C@@H]2C[C@H]1CN2c1cc2c(cc1F)c(=O)c(C(=O)O)cn2C1CC1 ?
1.5

---

- experimental.details: Plasma pharmacokinetics of danofloxacin after i.m. administration to lactating sheep fed control or flaxseed-enriched diets
- Assay type: in vivo
- condition.details: female, Assaf, im, 1.25 mg/kg, 1.25 mg/kg i.m., control diet, mean ± SD, n = 6
metric.name: MRT (h)
The response must be a number in h with no trailing unit.

Which MRT is listed for CN1C[C@@H]2C[C@H]1CN2c1cc2c(cc1F)c(=O)c(C(=O)O)cn2C1CC1 ?
4.22

---

- experimental.details: Plasma pharmacokinetics of danofloxacin after i.m. administration to lactating sheep fed control or flaxseed-enriched diets
- Type: in vivo
- condition.details: female, Assaf, im, 1.25 mg/kg, 1.25 mg/kg i.m., control diet, mean ± SD, n = 6
metric.name: AUC(0-inf) (ng·h/mL)
Number only, in ng·h/mL; omit the unit.

Query: AUC(0-inf); subject: CN1C[C@@H]2C[C@H]1CN2c1cc2c(cc1F)c(=O)c(C(=O)O)cn2C1CC1
1750

---

- experimental.details: Milk pharmacokinetics (secretion into milk) of danofloxacin after i.m. administration to lactating sheep fed control or flaxseed-enriched diets
- Format: in vivo
- condition.details: female, Assaf, sheep, milk, im, 1.25 mg/kg; 1.25 mg/kg i.m.; flaxseed 10% diet; mean ± SD, n = 6
metric.name: Tmax (h)
The reply should contain only the number, in h.

Request the reported Tmax associated with CN1C[C@@H]2C[C@H]1CN2c1cc2c(cc1F)c(=O)c(C(=O)O)cn2C1CC1 [danofloxacin]
3

---

- experimental.details: Milk pharmacokinetics (secretion into milk) of danofloxacin after i.m. administration to lactating sheep fed control or flaxseed-enriched diets
- Format: in vivo
- condition.details: female, Assaf, sheep, milk, im, 1.25 mg/kg; 1.25 mg/kg i.m.; flaxseed 15% diet; mean ± SD, n = 6
metric.name: Cmax
Answer with the number, then the unit.

Which value of Cmax has been reported for CN1C[C@@H]2C[C@H]1CN2c1cc2c(cc1F)c(=O)c(C(=O)O)cn2C1CC1 in the records?
1840 ng/mL

---

- experimental.details: Plasma pharmacokinetics of danofloxacin after i.m. administration to lactating sheep fed control or flaxseed-enriched diets
- Type: in vivo
- condition.details: female, Assaf, im, 1.25 mg/kg, 1.25 mg/kg i.m., flaxseed 15% diet, mean ± SD, n = 6
metric.name: MRT
Put your answer as a value accompanied by its unit after it.

What does the data say about its MRT? Entry: CN1C[C@@H]2C[C@H]1CN2c1cc2c(cc1F)c(=O)c(C(=O)O)cn2C1CC1 [danofloxacin]
4.95 h
